MEASUREMENT DESCRIPTION: Cellular Toxicity (caspase-3) Renal Proximal Tubule (AID 667);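 also: cells exposed to compound for 16 hours at 37 °C before detection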
MEASUREMENT SETUP: renal proximal tubule cells; at 91.7 µM (top of the series) unless noted
The source made the active and inactive calls. Calls follow the shape of the dose curve; as a rule, active = well fitted activation curve with a large enough effect; inconclusive = small, poorly fitted or top-dose-only effect, or effect the other way; inactive = flat fitted curve, though single readings scatter.
Response enum: active, inactive

Query :: Which result was noted for this molecule in the test: O=[N+]([O-])c1ccc(F)c([N+](=O)[O-])c1
Result :: inactive

New cases:
Query :: Per the records of this test, what outcome belongs to [O]=[Cr](=[O])([OH])[O][Cr](=[O])(=[O])[OH] ?
Result :: active

Query :: Query: recorded result category for COC1=CC(=O)O[C@@H](/C=C/c2ccccc2)C1 in this test
Result :: inactive

Query :: Check the results log: what was the call for COc1ccc2c(c1OC)C(=O)OC2C1c2cc3c(cc2CCN1C)OCO3 (configuration not stated) ?
Result :: inactive

====

MEASUREMENT DESCRIPTION: Cell Viability - Renal Proximal Tubule (AID 545);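 also: cells exposed to compound for 40 hours; nearly all actives have a fitted effect of over 40% in size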
MEASUREMENT SETUP: renal proximal tubule cells viability
Inconclusive results are not listed. Active and inactive are the calls of the source. Calls come from the whole dose curve; as a rule, active = well fitted cell-killing curve with a large enough effect; inconclusive = small, poorly fitted or top-dose-only effect; inactive = flat fitted curve, though single readings scatter.
Answer with one of the outcomes given here: active, inactive

Query :: What did the test return for COC1=CC(=O)O[C@@H](/C=C/c2ccccc2)C1 ?
Result :: inactive

Query :: Could you check what this test reported for S=C=S ?
Result :: inactive

Query :: Each compound tested received a call. Report the one for C[C@]12CCC(=O)C[C@@H]1CC[C@@H]1[C@@H]2CC[C@]2(C)[C@@H](O)CC[C@@H]12 .
Result :: inactive

---
Query :: // outcome(item) with item = NNC(N)=O
Result :: inactive

====

System: ECU
MEASUREMENT DESCRIPTION: qHTS profiling for inhibitors of Plasmodium falciparum proliferation (AID 504749); also: nearly all actives have a fitted effect of over 60% in size
MEASUREMENT SETUP: P. falciparum in erythrocytes, SYBR Green DNA, 72 h; series mostly up to 28.7 µM
Protocol: NIH National Institute of Allergy and Infectious Diseases [NIAID] NIH Chemical Genomics Center [NCGC] […] Because mature erythrocytes lack DNA, only Plasmodium-derived DNA is detected. NCGC Assay Protocol Summary: The SYBR Green viability assay was adapted from a method described previously (Plouffe et al., 2008). […] The following morning, fluorescence intensity at 485(14) nm excitation and 535(25) nm emission wavelengths was measured on an EnVision (Perkin Elmer) plate reader. […]
Results filed as inconclusive are left out. The source made the active and inactive calls. The call rests on the fitted dose curve; in most records, active means well fitted inhibition curve with a large enough effect; inconclusive means small, poorly fitted or top-dose-only effect; inactive means flat fitted curve, though single readings scatter.
Answer with one of the outcomes given here: active, inactive

Check out these entries, answers already filled in.
Query :: For CCC1(CC)C(=O)NC(=O)N(C)C1=O , which call appears in the assay record?
Result :: inactive

Query :: // param item: CCOC(=O)c1ccccc1C(=O)OCC ; yields the recorded call
Result :: inactive

Query :: Short answer needed: outcome of this test for N#CN ?
Result :: inactive

Query :: Which outcome was assigned to Clc1ccccc1Cl in this test?
Result :: inactive

Query :: What outcome does the record of this test show for COc1ccc(OC)c(C(O)C(C)N)c1 (centres undefined) ?
Result :: inactive

Query :: Test call for this compound, please: CCCC(C)C1(CC)C(=O)NC(=O)NC1=O (centres undefined)
Result :: inactive

***
Query :: How was CN1CCCC(=C(c2cccs2)c2cccs2)C1 classified in this test?
Result :: inactive

Query :: I'd appreciate the recorded outcome for O=C1CC[C@@]2(O)C3Cc4ccc(O)c5c4C2(CCN3CC2CC2)[C@H]1O5 (some centres undefined) from this test.
Result :: inactive

Query :: Outcome? CC12NC(Cc3ccccc31)c1ccccc12 (centres undefined)
Result :: inactive

Query :: For CC(C)(C)c1cc(O)ccc1O , which call appears in the assay record?
Result :: active

Query :: Which result was noted for this compound in the test: CNC(C)C(O)c1ccc(O)cc1 (centres undefined)
Result :: inactive

Query :: What outcome does the record of this test show for C[N+]1(C)C2CCC1CC(OC(=O)c1c[nH]c3ccccc13)C2 (centres undefined) ?
Result :: inactive

Query :: Recorded test call requested for c1csc(C2(N3CCCCC3)CCCCC2)c1
Result :: inactive

Query :: Give the logged outcome of this assay for the following compound: CCC1(c2ccccc2)C(=O)NC(=O)NC1=O
Result :: inactive
